measurementNotes: Ki value measured for the inhibition of human placenta diamine oxidase
endpoint: pKi
Lab note — pKi values are minus log10 of concentrations in M.

Reported pKi for NNC(=O)Cc1cccc(-n2cccc2)c1 was 4.00

Reported pKi for NNC(=O)Cc1ccc(-n2cccc2)cc1 was 5.00

Reported pKi for CC(C)=NNC(=O)Cc1ccc(-n2cccc2)cc1 was 5.00

Reported pKi for NNC(=O)c1ccc(-n2cccc2)cc1 was 4.00

Reported pKi for NNC(=O)c1ccccc1-n1cccc1 was 3.60

Reported pKi for NNC(=O)c1cccc(-n2cccc2)c1 was 3.96

---

measurementNotes: Effect on plasma amine oxidase (0.1 uM) after 15 min of incubation at pH 7.2
Type: cell-free
condition: 0.25 h, read-out: I50
endpoint: IC50 (µM)
Only the number, expressed in µM, is required.

Reported IC50 for NNC(=O)c1ccncc1 was 10

---

Species: Rattus norvegicus
measurementNotes: Brain mitochondrial activity measured at 120 min of incubation at 100 uM concentration
Format: functional
In plain terms, low Inhibition, meaning strictly below 9%, gives t, and everything else gives f.

Asked: Confirm or reject: Inhibition of CC(C)=NNC(=O)Cc1ccc(-n2cccc2)cc1 lies strictly below 9%
Given back: f

Asked: Confirm or reject: Inhibition of NNC(=O)c1ccccc1-n1cccc1 lies strictly below 9%
Given back: t

Asked: Confirm or reject: Inhibition of Cc1ccc(C)n1-c1ccc(CC(=O)NN)cc1 lies strictly below 9%
Given back: t

Asked: Confirm or reject: Inhibition of NNC(=O)c1ccc(-n2cccc2)cc1 lies strictly below 9%
Given back: f

Asked: Confirm or reject: Inhibition of NNC(=O)c1cccc(-n2cccc2)c1 lies strictly below 9%
Given back: t

Asked: Confirm or reject: Inhibition of NNC(=O)c1ccncc1 [ISONIAZID] lies strictly below 9%
Given back: f

Asked: Confirm or reject: Inhibition of NNC(=O)Cc1cccc(-n2cccc2)c1 lies strictly below 9%
Given back: f

---

measurementNotes: Ki value measured for the inhibition of copper dependent amine oxidase in bovine plasma
Type: cell-free
In plain terms, low Ki, meaning strictly below 0.8 µM, gives YES, and everything else gives NO.

Asked: Confirm or reject: Ki of NNC(=O)Cc1cccc(-n2cccc2)c1 lies strictly below 0.8 µM
Given back: YES

Asked: Confirm or reject: Ki of NNC(=O)c1cccc(-n2cccc2)c1 lies strictly below 0.8 µM
Given back: NO

Asked: Confirm or reject: Ki of Cc1ccc(C)n1-c1ccc(CC(=O)NN)cc1 lies strictly below 0.8 µM
Given back: NO

Asked: Confirm or reject: Ki of NNC(=O)c1ccccc1-n1cccc1 lies strictly below 0.8 µM
Given back: NO

Asked: Confirm or reject: Ki of NNC(=O)Cc1ccc(-n2cccc2)cc1 lies strictly below 0.8 µM
Given back: YES

Asked: Confirm or reject: Ki of NNC(=O)c1ccc(-n2cccc2)cc1 lies strictly below 0.8 µM
Given back: NO

---

measurementNotes: Effect on placental diamine oxidase (0.1 uM) after 0 min of incubation at pH 7.2
Design: species or system Homo sapiens
condition: read-out: I50
endpoint: pIC50
Lab note — pIC50 values are minus log10 of concentrations in M.

Reported pIC50 for Cc1ccc(C)n1-c1ccc(CC(=O)NN)cc1 was 4.00

Reported pIC50 for NNC(=O)Cc1ccc(-n2cccc2)cc1 was 5.00

Reported pIC50 for NNC(=O)c1ccc(-n2cccc2)cc1 was 3.70

Reported pIC50 for NNC(=O)Cc1cccc(-n2cccc2)c1 was 4.30

Reported pIC50 for NNC(=O)c1ccccc1-n1cccc1 was 4.00

Reported pIC50 for NNC(=O)c1cccc(-n2cccc2)c1 was 4.00

Reported pIC50 for CC(C)=NNC(=O)Cc1ccc(-n2cccc2)cc1 was 4.30
